Reference source: patent US20230085307A1

As shown below, each of these molecules has a reported melting point value.

{"columns": ["structure.smiles", "melting point"],
 "data": [
  ["COc1cc(F)ccc1-c1sc2ccc(Cl)cc2c1-c1c(O)c(C)nn(C)c1=O", "221 to 223 °C"],
  ["Cc1nn(C)c(=O)c(-c2c(-c3ccc(OC(F)F)cc3)sc3ccc(F)cc23)c1O", "164 to 165 °C"],
  ["COc1ccc(-c2oc3ccc(F)cc3c2-c2c(O)c(C)nn(C)c2=O)cc1", "248 to 250 °C"],
  ["COc1ccc2c(-c3c(O)c(N)nn(C)c3=O)c(-c3ccccc3OC)sc2c1", "286 to 288 °C"],
  ["COc1ccc2c(-c3c(O)c(N(Cc4ccccc4)Cc4ccccc4)nn(C)c3=O)c(-c3ccccc3OC)sc2c1", "163 to 166 °C"],
  ["COc1ccccc1-c1sc2ccc(SC(F)(F)F)cc2c1-c1c(O)c(C)nn(C)c1=O", "183 to 186 °C"]
]}

---

As shown below, each of these molecules has a reported melting point value.
measured.quantity: melting point

{"columns": ["structure.smiles", "reading"],
 "data": [
  ["COc1ccccc1-c1sc2ccc(Cl)cc2c1-c1c(OC)c(C)nn(C)c1=O", "174 to 175 °C"],
  ["COc1ccccc1-c1sc2ccc(SC(F)(F)F)cc2c1-c1c(OC)c(C)nn(C)c1=O", "152 to 155 °C"],
  ["Cc1nn(C)c(=O)c(-c2c(-c3ccc(C#N)cc3)sc3ccccc23)c1O", "240 to 242 °C"],
  ["Cc1nn(C)c(=O)c(-c2c(-c3ccc(Cl)cc3)sc3ccc(F)cc23)c1O", "258 to 259 °C"]
]}
